Source: ChEMBL document CHEMBL5154920

Measured IC50 on Nicotinamide phosphoribosyltransferase (Homo sapiens, UniProt P43490) follows.
Sequence (P43490 whole entry): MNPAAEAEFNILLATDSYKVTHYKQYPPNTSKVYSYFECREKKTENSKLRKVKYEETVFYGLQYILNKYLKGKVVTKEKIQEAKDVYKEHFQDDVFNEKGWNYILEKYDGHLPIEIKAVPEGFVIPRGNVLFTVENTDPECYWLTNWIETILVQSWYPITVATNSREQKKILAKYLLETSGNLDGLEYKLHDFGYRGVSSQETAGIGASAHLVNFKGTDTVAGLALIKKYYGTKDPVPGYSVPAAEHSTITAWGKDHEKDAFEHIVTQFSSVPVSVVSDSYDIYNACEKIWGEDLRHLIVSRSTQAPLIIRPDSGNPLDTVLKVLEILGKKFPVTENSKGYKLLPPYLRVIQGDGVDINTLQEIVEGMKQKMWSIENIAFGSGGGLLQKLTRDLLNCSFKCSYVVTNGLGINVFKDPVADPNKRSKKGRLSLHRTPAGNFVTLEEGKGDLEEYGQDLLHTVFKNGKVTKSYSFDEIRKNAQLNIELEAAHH

Chemical String	Unit Descriptor	IC50
Cc1ccc(C(=O)N(CCCNC(=O)CCOCCN2CCN(S(=O)(=O)c3ccc(NC(=S)NCc4cccnc4)cc3)CC2)[C@@H](c2nc3cc(Cl)ccc3c(=O)n2Cc2ccccc2)C(C)C)cc1	µM	0.01
Cc1ccc(C(=O)N(CCCNC(=O)CCCCCCCN2CCN(S(=O)(=O)c3ccc(NC(=S)NCc4cccnc4)cc3)CC2)[C@@H](c2nc3cc(Cl)ccc3c(=O)n2Cc2ccccc2)C(C)C)cc1	µM	0.019
Cc1ccc(C(=O)N(CCCNC(=O)CCCCCCCCN2CCN(S(=O)(=O)c3ccc(NC(=S)NCc4cccnc4)cc3)CC2)[C@@H](c2nc3cc(Cl)ccc3c(=O)n2Cc2ccccc2)C(C)C)cc1	µM	0.023
Cc1ccc(C(=O)N(CCCNC(=O)CCOCCOCCOCCN2CCN(S(=O)(=O)c3ccc(NC(=S)NCc4cccnc4)cc3)CC2)[C@@H](c2nc3cc(Cl)ccc3c(=O)n2Cc2ccccc2)C(C)C)cc1	µM	0.01
